- experimental.system: T1, Human Siglec-9 (human, UniProt Q9Y336 18-463)
- T1 construct: On transfected CHO cells; also on YTS and KHYG-1 transfectants, primary NK cells and moDC; also called huSiglec-9; CD329
- T1 sequence (Q9Y336 18-463): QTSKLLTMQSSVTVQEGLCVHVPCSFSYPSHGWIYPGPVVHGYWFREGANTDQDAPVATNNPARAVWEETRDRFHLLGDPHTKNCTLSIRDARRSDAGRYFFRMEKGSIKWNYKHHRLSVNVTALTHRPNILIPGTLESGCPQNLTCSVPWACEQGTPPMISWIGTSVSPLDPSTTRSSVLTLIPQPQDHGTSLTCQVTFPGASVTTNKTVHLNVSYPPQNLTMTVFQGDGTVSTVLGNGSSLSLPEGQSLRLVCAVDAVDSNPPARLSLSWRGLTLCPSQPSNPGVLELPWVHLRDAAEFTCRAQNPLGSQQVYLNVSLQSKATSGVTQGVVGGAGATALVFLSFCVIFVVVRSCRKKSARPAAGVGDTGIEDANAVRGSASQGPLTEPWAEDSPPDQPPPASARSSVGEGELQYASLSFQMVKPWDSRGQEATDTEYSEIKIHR
- test.details: flow cytometry, CHO Siglec-9 cells, mean n = 2

binder	EC50 [µg/mL]
mAbD H1L1 (antibody, V domains shown, constant region not specified) VH: QVQLVQSGSELKKPGASVKVSCKASGYTFTDYSMHWVRQAPGQGLKWMGWIITETGEPTYADDFRGRFVFSLDTSVSTAYLQISSLKAEDTAVYYCARDFDGYWGQGTTVTVSS VL: DIQMTQSPSSLSASVGDRVTITCRASENIYSYLAWYQQKPGKAPKFLIYNAKTLTEGVPSRFSGSGSGTDFTLTISSLQPEDFATYYCQHHYGFPWTFGGGTKVEIK	0.015
mAbD H2L2 (antibody, V domains shown, constant region not specified) VH: QVQLVQSGSELKKPGASVKVSCKASGYTFTDYSMHWVRQAPGQGLKWMGWIITETGEPTYADDFRGRFVFSLDTSVSTAYLQISSLKAEDTAVYFCARDFDGYWGQGTTVTVSS VL: DIQMTQSPSSLSASVGDRVTITCRASENIYSYLAWYQQKPGKAPKFLIYNAKTLTEGVPSRFRGSGSGTDFTLTISSLQPEDFATYYCQHHYGFPWTFGGGTKVEIK	0.021
mAbA H3L1 (antibody, V domains shown, constant region not specified) VH: QVQLVQSGAEVKKPGSSVKVSCKASYFTFSSYWMHWVRQAPGQGLEWMGEINPSNGHTNYNEKFESRVTITADRSTSTAYMELSSLRSEDTAVYYCANGVESYDFDDALDYWGQGTTVTVSS VL: DIQMTQSPSSLSASVGDRVTITCRASQDINNYLNWYQQKPGKAPKLLIYYTSRLHSGVPSRFSGSGSGTDYTFTISSLQPEDIATYYCQQGNTLPFTFGGGTKVEIK	0.044
mAbA H0L2 (antibody, V domains shown, constant region not specified) VH: QVQLVQSGAEVKKPGSSVKVSCKASGGTFSSYWMHWVRQAPGQGLEWMGEINPSNGHTNYNEKFESRVTITADESTSTAYMELSSLRSEDTAVYYCARGVESYDFDDALDYWGQGTTVTVSS VL: DIQMTQSPSSLSASVGDRVTITCRASQDINNYLNWYQQKPGKAIKLLIYYTSRLHSGVPSRFSGSGSGTDYTFTISSLQPEDIATYYCQQGNTLPFTFGGGTKVEIK	0.034
mAbD H0L2 (antibody, V domains shown, constant region not specified) VH: QVQLVQSGSELKKPGASVKVSCKASGYTFTDYSMHWVRQAPGQGLEWMGWIITETGEPTYADDFRGRFVFSLDTSVSTAYLQISSLKAEDTAVYYCARDFDGYWGQGTTVTVSS VL: DIQMTQSPSSLSASVGDRVTITCRASENIYSYLAWYQQKPGKAPKFLIYNAKTLTEGVPSRFRGSGSGTDFTLTISSLQPEDFATYYCQHHYGFPWTFGGGTKVEIK	0.02
mAbD H1L0 (antibody, V domains shown, constant region not specified) VH: QVQLVQSGSELKKPGASVKVSCKASGYTFTDYSMHWVRQAPGQGLKWMGWIITETGEPTYADDFRGRFVFSLDTSVSTAYLQISSLKAEDTAVYYCARDFDGYWGQGTTVTVSS VL: DIQMTQSPSSLSASVGDRVTITCRASENIYSYLAWYQQKPGKAPKLLIYNAKTLTEGVPSRFSGSGSGTDFTLTISSLQPEDFATYYCQHHYGFPWTFGGGTKVEIK	0.019
mAbA H1L2 (antibody, V domains shown, constant region not specified) VH: QVQLVQSGAEVKKPGSSVKVSCKASGGTFSSYWMHWVRQAPGQGLEWMGEINPSNGHTNYNEKFESRVTITADESTSTAYMELSSLRSEDTAVYYCANGVESYDFDDALDYWGQGTTVTVSS VL: DIQMTQSPSSLSASVGDRVTITCRASQDINNYLNWYQQKPGKAIKLLIYYTSRLHSGVPSRFSGSGSGTDYTFTISSLQPEDIATYYCQQGNTLPFTFGGGTKVEIK	0.037
